Reference source: ChEMBL document CHEMBL1124363

Test: Effective concentration of compound for half-maximal response in hydroosmotic toad bladder assay
Type: functional
Conditions: Amphibia; read-out: ED50 (the source's name)
Where a SMILES comes first, the peptide text is derived from it.
READOUT: pEC50
Field pEC50 (float): negative decimal logarithm of the concentration in molar.

Observe how each entry below is paired with its result.
- MOLECULE: "CC[C@H](C)[C@@H]1NC(=O)[C@H](Cc2ccc(O)cc2)NC(=O)[C@@H](N)CSSC[C@@H](C(=O)N2CCC[C@H]2C(=O)N[C@@H](CCCN=C(N)N)C(=O)N[C@@H](Cc2ccc(O)cc2)C(N)=O)NC(=O)[C@H](CC(N)=O)NC(=O)[C@H](CCC(N)=O)NC1=O (HELM PEPTIDE1{C.Y.I.Q.N.C.P.R.Y.[am]}$PEPTIDE1,PEPTIDE1,1:R3-6:R3$$$V2.0)"
  pEC50: 9.31
- MOLECULE: "CC[C@H](C)[C@@H]1NC(=O)[C@H](Cc2ccc(O)cc2)NC(=O)CCSSC[C@@H](C(=O)N2CCC[C@H]2C(=O)N[C@@H](CCCN=C(N)N)C(=O)N[C@@H](Cc2ccc(N=[N+]=[N-])cc2)C(N)=O)NC(=O)[C@H](CC(N)=O)NC(=O)[C@H](CCC(N)=O)NC1=O (HELM PEPTIDE1{[O=C(CCS[*:3])[*:2]].Y.I.Q.N.C.P.R.[[N-]=[N+]=Nc1ccc(C[C@H](N[*:1])C(=O)[*:2])cc1].[am]}$PEPTIDE1,PEPTIDE1,1:R3-6:R3$$$V2.0)"
  pEC50: 10.05

Now consider a different molecule.
May I ask what pEC50 has been recorded for CC[C@H](C)[C@@H]1NC(=O)[C@H](Cc2ccc(O)cc2)NC(=O)[C@@H](N)CSSC[C@@H](C(=O)N2CCC[C@H]2C(=O)N[C@@H](CCCN=C(N)N)C(=O)NCC(N)=O)NC(=O)[C@H](CC(N)=O)NC(=O)[C@H](CCC(N)=O)NC1=O [VASOTOCIN] (HELM PEPTIDE1{C.Y.I.Q.N.C.P.R.G.[am]}$PEPTIDE1,PEPTIDE1,1:R3-6:R3$$$V2.0) ?
10.66
